target: Ikkb (Homo sapiens); experiment: LabChip (Caliper) kinase assay, Ikkb; type: biochemical; details: compound at 10 nM, read-out: remaining kinase activity (in %) / percentage of inhibition
Sequence (O14920 whole entry, species assumed): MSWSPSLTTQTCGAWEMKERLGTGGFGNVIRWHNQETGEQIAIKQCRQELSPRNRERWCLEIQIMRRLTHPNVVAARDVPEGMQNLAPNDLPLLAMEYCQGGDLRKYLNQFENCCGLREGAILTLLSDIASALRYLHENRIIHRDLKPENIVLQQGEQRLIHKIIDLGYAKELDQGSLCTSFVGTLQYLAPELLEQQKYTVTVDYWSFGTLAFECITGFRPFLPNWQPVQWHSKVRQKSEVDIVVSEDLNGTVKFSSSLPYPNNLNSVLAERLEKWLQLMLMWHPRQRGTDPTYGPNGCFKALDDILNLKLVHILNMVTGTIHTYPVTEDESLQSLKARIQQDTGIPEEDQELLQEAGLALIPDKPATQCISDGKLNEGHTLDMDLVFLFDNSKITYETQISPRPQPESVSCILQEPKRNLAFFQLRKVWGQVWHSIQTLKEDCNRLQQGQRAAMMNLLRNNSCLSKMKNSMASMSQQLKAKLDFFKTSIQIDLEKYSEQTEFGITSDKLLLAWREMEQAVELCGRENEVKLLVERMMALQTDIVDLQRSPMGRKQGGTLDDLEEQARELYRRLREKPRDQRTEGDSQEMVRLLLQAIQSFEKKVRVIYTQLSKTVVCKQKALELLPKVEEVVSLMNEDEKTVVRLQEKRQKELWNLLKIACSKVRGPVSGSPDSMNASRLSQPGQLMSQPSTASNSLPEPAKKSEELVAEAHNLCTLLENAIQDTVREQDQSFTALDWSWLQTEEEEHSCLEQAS
# inhibition at 0.01 µM per record follows

// worked examples, inhibition at 0.01 µM included
- C[C@@H]1O[C@@H](n2c3ccccc3c3c4c(c5c6ccccc6[nH]c5c32)CNC4=O)C[C@@H](O)[C@H]1O [formula (XIV), N^13-1′-β-L-digitoxosyl-k252c]: 27%
- C[C@@H]1O[C@@H](n2c3ccccc3c3c4c(c5c6ccccc6[nH]c5c32)C(=O)NC4=O)C[C@H](O)[C@H]1O [formula (IV), N^13-1′-β-L-olivosylarcyriaflavin]: 9%

Could you now look at the following compound, please?
inhibition at 0.01 µM recorded for this compound, C[C@H]1O[C@@H](n2c3ccccc3c3c4c(c5c6ccccc6[nH]c5c32)CNC4=O)C[C@@H](O)[C@@H]1O [formula (XV), N^13-1′-β-D-olivosyl-k252c] , is -5%

* * *

system: A549 (lung)
assay metric: GI50 (µM)
Answer with a number only, understood to be in µM.

// worked examples, GI50 included
- C[C@@H]1O[C@@H](n2c3ccccc3c3c4c(c5c6ccccc6[nH]c5c32)C(=O)NC4=O)[C@H](O)[C@H](O)[C@H]1O: 4.18
- C[C@]12O[C@H](C[C@@H](O)[C@H]1O)n1c3ccccc3c3c4c(c5c6ccccc6n2c5c31)C(=O)NC4=O: 5.51
- C[C@@H]1O[C@@H](n2c3ccccc3c3c4c(c5c6ccccc6[nH]c5c32)C(=O)NC4=O)C[C@@H](O)[C@H]1O: 4.41
- CO[C@H]1[C@H](O)[C@@H](O)[C@H](n2c3c(Cl)cccc3c3c4c(c5c6cccc(Cl)c6[nH]c5c32)C(=O)NC4=O)O[C@@H]1CO [RBM, rebeccamycin, reference compound]: 0.76

Could you now look at the following compound, please?
Assay A549 (lung), sample "C[C@]12O[C@H](C[C@H](O)[C@H]1O)n1c3ccccc3c3c4c(c5c6ccccc6n2c5c31)C(=O)NC4=O" , GI50 read: 5.73

* * *

Molecular target: Chk1 (Homo sapiens, UniProt O14757)
Construct: purchased Carna Biosciences
Sequence (O14757 1-476): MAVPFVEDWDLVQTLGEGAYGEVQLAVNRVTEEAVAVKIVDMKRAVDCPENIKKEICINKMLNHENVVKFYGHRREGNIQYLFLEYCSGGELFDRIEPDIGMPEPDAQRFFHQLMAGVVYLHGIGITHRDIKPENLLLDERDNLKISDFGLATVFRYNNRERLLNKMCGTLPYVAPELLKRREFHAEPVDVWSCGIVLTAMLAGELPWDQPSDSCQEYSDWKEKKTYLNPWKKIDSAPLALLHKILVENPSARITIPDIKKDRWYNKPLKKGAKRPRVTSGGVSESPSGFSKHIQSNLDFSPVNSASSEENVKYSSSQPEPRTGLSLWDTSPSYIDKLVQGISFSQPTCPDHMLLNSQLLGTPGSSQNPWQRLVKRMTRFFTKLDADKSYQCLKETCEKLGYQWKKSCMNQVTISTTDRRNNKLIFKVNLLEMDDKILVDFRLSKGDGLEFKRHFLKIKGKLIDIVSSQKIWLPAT
Assay: LabChip (Caliper) kinase assay, Chk1
Assay type: biochemical
Conditions: compound at 100 nM, read-out: remaining kinase activity (in %) / percentage of inhibition
assay metric: inhibition at 0.1 µM (%)
Answer with a number only, understood to be in %.

- C[C@@H]1O[C@@H](n2c3ccccc3c3c4c(c5c6ccccc6[nH]c5c32)CNC4=O)C[C@H](O)[C@H]1O [formula (XIII), N^13-1′-β-L-olivosyl-k252c]: 27
- C[C@@H]1O[C@@H](n2c3ccccc3c3c4c(c5c6ccccc6[nH]c5c32)CNC4=O)[C@H](O)[C@H](O)[C@H]1O [formula (XII), N^13-1′-β-L-rhamnosyl-k252c]: 8

Could you now look at the following molecule, please?
inhibition at 0.1 µM recorded for this molecule, C[C@@H]1O[C@@H](n2c3ccccc3c3c4c(c5c6ccccc6[nH]c5c32)CNC4=O)C[C@@H](O)[C@H]1O [formula (XIV), N^13-1′-β-L-digitoxosyl-k252c] , is 46

* * *

Biological target: Chk1 (Homo sapiens, UniProt O14757)
Construct: purchased Carna Biosciences
Sequence (O14757 1-476): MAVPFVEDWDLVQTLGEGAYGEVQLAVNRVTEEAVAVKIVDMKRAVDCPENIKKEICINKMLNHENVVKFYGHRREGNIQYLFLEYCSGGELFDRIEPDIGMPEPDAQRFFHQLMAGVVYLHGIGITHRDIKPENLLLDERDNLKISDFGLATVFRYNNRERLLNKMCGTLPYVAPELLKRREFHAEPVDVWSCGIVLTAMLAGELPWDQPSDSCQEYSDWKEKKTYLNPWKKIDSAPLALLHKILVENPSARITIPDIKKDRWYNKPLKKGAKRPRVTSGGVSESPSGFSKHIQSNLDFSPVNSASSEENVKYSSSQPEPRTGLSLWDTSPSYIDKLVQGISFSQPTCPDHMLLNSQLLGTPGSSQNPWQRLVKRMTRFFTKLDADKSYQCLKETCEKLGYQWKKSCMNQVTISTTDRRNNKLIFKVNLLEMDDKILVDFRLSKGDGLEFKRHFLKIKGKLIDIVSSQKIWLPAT
Assay: LabChip (Caliper) kinase assay, Chk1
Type: biochemical
Conditions: compound at 100 nM, read-out: remaining kinase activity (in %) / percentage of inhibition
assay metric: inhibition at 0.1 µM (%)
Answer with a number only, understood to be in %.

// worked examples, inhibition at 0.1 µM included
- C[C@@H]1O[C@@H](n2c3ccccc3c3c4c(c5c6ccccc6[nH]c5c32)C(=O)NC4=O)[C@H](O)[C@H](O)[C@H]1O [formula (III), N^13-1′-β-L-rhamnosylarcyriaflavin]: 15
- C[C@@H]1O[C@@H](n2c3ccccc3c3c4c(c5c6ccccc6[nH]c5c32)C(=O)NC4=O)C[C@H](O)[C@H]1O [formula (IV), N^13-1′-β-L-olivosylarcyriaflavin]: 35
- C[C@H]1O[C@@H](n2c3ccccc3c3c4c(c5c6ccccc6[nH]c5c32)C(=O)NC4=O)C[C@@H](O)[C@@H]1O [formula (VI), N^13-1′-β-D-olivosylarcyriaflavin]: 50
- C[C@@H]1O[C@@H](n2c3ccccc3c3c4c(c5c6ccccc6[nH]c5c32)C(=O)NC4=O)C[C@@H](O)[C@H]1O [formula (V), N^13-1′-β-L-digitoxosylarcyriaflavin]: 81

Could you now look at the following compound, please?
Assay Chk1 (Homo sapiens, UniProt O14757), sample C[C@H]1O[C@@H](n2c3ccccc3c3c4c(c5c6ccccc6[nH]c5c32)CNC4=O)C[C@@H](O)[C@@H]1O [formula (XV), N^13-1′-β-D-olivosyl-k252c] , inhibition at 0.1 µM read: 20

* * *

# remaining kinase activity (in %) / percentage of inhibition per record follows
test system: CamK2a; assay: LabChip (Caliper) kinase assay, CamK2a; type: biochemical; conditions: compound at 100 nM
Answer with a number only, understood to be in %.

// worked examples, remaining kinase activity (in %) / percentage of inhibition included
• C[C@@H]1O[C@@H](n2c3ccccc3c3c4c(c5c6ccccc6[nH]c5c32)CNC4=O)C[C@H](O)[C@H]1O [formula (XIII), N^13-1′-β-L-olivosyl-k252c] = 27
• C[C@@H]1O[C@@H](n2c3ccccc3c3c4c(c5c6ccccc6[nH]c5c32)CNC4=O)[C@H](O)[C@H](O)[C@H]1O [formula (XII), N^13-1′-β-L-rhamnosyl-k252c] = 2
• C[C@H]1O[C@@H](n2c3ccccc3c3c4c(c5c6ccccc6[nH]c5c32)C(=O)NC4=O)C[C@@H](O)[C@@H]1O = 46
• C[C@@H]1O[C@@H](n2c3ccccc3c3c4c(c5c6ccccc6[nH]c5c32)C(=O)NC4=O)C[C@H](O)[C@H]1O = 29
• C[C@@H]1O[C@@H](n2c3ccccc3c3c4c(c5c6ccccc6[nH]c5c32)C(=O)NC4=O)[C@H](O)[C@H](O)[C@H]1O = 3

remaining kinase activity (in %) / percentage of inhibition recorded for this compound, "C[C@@H]1O[C@@H](n2c3ccccc3c3c4c(c5c6ccccc6[nH]c5c32)C(=O)NC4=O)C[C@@H](O)[C@H]1O" , is 58

remaining kinase activity (in %) / percentage of inhibition recorded for this compound, C[C@H]1O[C@@H](n2c3ccccc3c3c4c(c5c6ccccc6[nH]c5c32)CNC4=O)C[C@@H](O)[C@@H]1O [formula (XV), N^13-1′-β-D-olivosyl-k252c] , is 29

remaining kinase activity (in %) / percentage of inhibition recorded for this compound, C[C@@H]1O[C@@H](n2c3ccccc3c3c4c(c5c6ccccc6[nH]c5c32)CNC4=O)C[C@@H](O)[C@H]1O [formula (XIV), N^13-1′-β-L-digitoxosyl-k252c] , is 26
